This section presents compounds with their documented GI50 values.
- Test system: PC-3
- protocol_details: NCI tumour cell line growth inhibition, 48 h
Activity calls are given as the source filed them. Cut-off read from the data, not from the text of the source: active = GI50 up to about 1.1 µM and inactive = higher.

{"compound": "COc1ccc(-c2coc3cc(OC)cc(O)c3c2=O)cc1 [4',7-DIMETHOXY-5-HYDROXYGENISTEIN]", "tested_system": "PC-3", "GI50": "> 100 µM (inactive)"}
{"compound": "Nn1c(CCCCCCCCc2nnc(COc3ccc4ccccc4c3O)n2N)nnc1COc1ccc2ccccc2c1O", "tested_system": "PC-3", "GI50": "26.7 µM (inactive)"}
{"compound": "O=C(O)c1ccccc1/C=N\\N=C1NCCCCN1", "tested_system": "PC-3", "GI50": "> 100 µM (inactive)"}
{"compound": "O=c1c(O)c(-c2cc(O)c(O)cc2O)oc2cc(O)c(C3OC(CO)C(O)C(O)C3O)c(O)c12 (configuration not stated)", "tested_system": "PC-3", "GI50": "> 100 µM (inactive)"}
{"compound": "O=C1Cc2c([nH]c3ccc([N+](=O)[O-])cc23)-c2ccccc2N1", "tested_system": "PC-3", "GI50": "0.836 µM (active)"}
{"compound": "CC(C)(C)CC(C)(C)c1ccc(O)c(C[N+](C)(C)[O-])c1", "tested_system": "PC-3", "GI50": "85.7 µM (inactive)"}
{"compound": "Brc1ccc2c(c1)[C@H]1CCc3c([nH]c4ccccc34)[C@H]1N2", "tested_system": "PC-3", "GI50": "5.9 µM (inactive)"}
{"compound": "C#CCn1c(=O)c(C)cn(/C(=C/C(=O)OCC)C(=O)OCC)c1=O", "tested_system": "PC-3", "GI50": "12.6 µM (inactive)"}
{"compound": "CCCCSc1nsc(N(C(=O)c2ccccc2)C(=O)c2ccccc2)n1", "tested_system": "PC-3", "GI50": "33.5 µM (inactive)"}
{"compound": "COC(=O)/C=C\\n1ncc(=O)[nH]c1=O", "tested_system": "PC-3", "GI50": "> 100 µM (inactive)"}
{"compound": "CN(C)c1ccc(/C=C/c2cc(-c3ccccc3)[n+](C)n2-c2ccccc2)cc1", "tested_system": "PC-3", "GI50": "0.158 µM (active)"}
{"compound": "ClC1=NSSC1(Cl)Cl", "tested_system": "PC-3", "GI50": "61.7 µM (inactive)"}
{"compound": "CC(C)/C(Cl)=N/OC(=O)Nc1ccc(F)c(Cl)c1", "tested_system": "PC-3", "GI50": "16.1 µM (inactive)"}
{"compound": "O=C1C=CC(=O)C(CNc2ccc(C(=O)OC34CC5CC(CC(C5)C3)C4)cc2)=C1", "tested_system": "PC-3", "GI50": "6.07 µM (inactive)"}
{"compound": "Clc1ccc(-c2cc(-c3cc4cc(Br)ccc4nc3Cl)on2)cc1", "tested_system": "PC-3", "GI50": "16.5 µM (inactive)"}
{"compound": "COc1cc2c(c(N)c1OC)C(=O)/C(=C/c1cc(C)c(O)c(C)c1)C2", "tested_system": "PC-3", "GI50": "< 0.01 µM (active)"}
{"compound": "C[N+](C)(C)CCOP(=O)([O-])OCCNC(=O)c1ccc2ccccc2c1", "tested_system": "PC-3", "GI50": "> 100 µM (inactive)"}

----------
- System: SF-539
- protocol_details: NCI tumour cell line growth inhibition, 48 h
The source made the active and inactive calls. Rule as the data show it: active = GI50 up to about 1.1 µM and inactive = higher.
Possible outcomes: YES for active, NO for inactive

{"compound": "N#Cc1c(N)c2c(c(-c3ccccc3)c1-c1ccccc1)C(=O)N(O)C2=O", "assigned_category": "NO"}
{"compound": "O=c1c2cc(Br)ccc2[nH]c(=S)n1-c1ccccc1", "assigned_category": "NO"}
{"compound": "COC(=O)/C(=N\\NC(N)=S)C(C#N)c1ccccc1 (centres undefined)", "assigned_category": "NO"}
{"compound": "COc1cc2c(c(N)c1OC)C(=O)/C(=C/c1cc(C)c(O)c(C)c1)C2", "assigned_category": "YES"}
{"compound": "COc1ccc(/C=C/C(=O)c2cccc(C(=O)/C=C/c3ccc(OC)c(OC)c3)n2)cc1OC", "assigned_category": "NO"}
{"compound": "COc1ccc2c(c1)C(=O)N1CCOC1C2C(=O)O (centres undefined)", "assigned_category": "NO"}
{"compound": "O=[N+]([O-])c1sc2ccc(Cl)cc2c1Nc1ccc(Cl)cc1", "assigned_category": "NO"}
{"compound": "C/C1=C\\[C@@H](O)C(=O)/C=C/C=C\\c2csc(n2)[C@@H](C)NC(=O)C[C@@]2(CC1)[S+]([O-])SC(=O)[C@]2(C)O (some centres undefined) [LEINAMYCIN]", "assigned_category": "YES"}
{"compound": "CC(=O)O[C@H]1/C(=C/c2ccc(N(C)C)cc2)C[C@H]2[C@@H]3CC=C4C[C@@H](N5CCCC5)CC[C@]4(C)[C@H]3CC[C@]12C", "assigned_category": "NO"}
{"compound": "CS(=O)(=O)OCC1CCCCCCCCCCC12SCCCS2 (centres undefined)", "assigned_category": "NO"}
{"compound": "COC(=O)c1c(C)cccc1/C=C1\\Cc2cc(C)cc(C)c2C1=O", "assigned_category": "NO"}
{"compound": "CC(=O)c1nc2ccccc2n1C(C)C(=O)c1ccccc1 (centres undefined)", "assigned_category": "NO"}
{"compound": "CCc1cccc(C(C)C)c1NC(=O)C(=O)Nn1c(S)nc2ccccc2c1=O", "assigned_category": "NO"}
{"compound": "O=C(O)Cc1ccccc1 [PHENYLACETIC ACID]", "assigned_category": "NO"}
{"compound": "COC(=O)[C@@]12OC[C@]34[C@H]([C@@H](O)[C@@H]1O)[C@@]1(C)CC(=O)C(O)=C(C)[C@@H]1C[C@H]3OC(=O)[C@H](OC(=O)/C=C(\\C)C(C)C)[C@@H]24 [BRUCEANTIN]", "assigned_category": "YES"}
{"compound": "CCCCNc1nc(SC)nc2[nH]cnc12", "assigned_category": "NO"}
{"compound": "O=C(/C=C/c1ccccc1)CCC1C(=O)c2ccccc2C1=O", "assigned_category": "NO"}
{"compound": "COc1ccc2c(c1)[n+]([O-])c(C(=O)C/C(=N/NC(=O)c1ccccc1O)C(=O)Nc1ccc(Cl)c(C(F)(F)F)c1)c(C)[n+]2[O-]", "assigned_category": "NO"}
{"compound": "COc1cc(OC)c(Oc2cccc(OC)c2OC)c(OC)c1", "assigned_category": "NO"}

----------
- Test system: T47D
- protocol_details: NCI tumour cell line growth inhibition, 48 h
Calls of active or inactive are those of the source. Cut-off read from the data, not from the text of the source: active = GI50 up to about 1.1 µM and inactive = higher.
List of GI50 values.

{"molecular_string": "O=C1C=CC(=O)C(CNc2ccc(C(=O)OC34CC5CC(CC(C5)C3)C4)cc2)=C1", "GI50": "2.49 µM (inactive)"}
{"molecular_string": "Cn1c(=S)[nH]c(N)c(Cc2ccccc2)c1=O", "GI50": "40.3 µM (inactive)"}
{"molecular_string": "N#CCCN(CCC#N)c1ccc(/C=C2\\SC(=S)NC2=O)cc1", "GI50": "> 100 µM (inactive)"}

----------
- System: MDA-MB-435
- protocol_details: NCI tumour cell line growth inhibition, 48 h
Activity calls are given as the source filed them. Cut-off read from the data, not from the text of the source: active = GI50 up to about 1.1 µM and inactive = higher. Where a SMILES comes first, the peptide text is derived from it. The star is where a group is joined. Boc = CC(C)(C)OC(=O)*; OBn = c1ccc(CO*)cc1
Classes used: active, inactive

{"molecule": "CC(O)c1cc2c(s1)C(=O)c1c(C(C)O)csc1C2=O (stereo not drawn)", "assigned_category": "active"}
{"molecule": "COC(=O)[C@@H](NC(=O)c1ccc(CNC(=O)/C(C)=C/c2ccccc2)cc1)C(C)C", "assigned_category": "inactive"}
{"molecule": "CC(C)(C)OC(=O)NC(Cc1ccccc1)C(=O)NC(Cc1ccccc1)C(=O)NCC(=O)OCc1ccccc1 (stereo not drawn) (Boc-Phe-Phe-Gly-OBn; configuration not given here)", "assigned_category": "inactive"}
{"molecule": "CN(C)c1ccc(/C=C/c2cc(-c3ccccc3)[n+](C)n2-c2ccccc2)cc1", "assigned_category": "active"}
{"molecule": "CN(C)CC1COC2Cc3ccccc3C1O2 (stereo not drawn)", "assigned_category": "inactive"}
{"molecule": "CCOC(=O)c1csc(NC(=O)CN2CCN(c3ccccc3)CC2)n1", "assigned_category": "inactive"}
{"molecule": "Cc1sc2nc3n(sc4nc5sc(C)c(C)c5c(=O)n43)c(=O)c2c1C", "assigned_category": "inactive"}
{"molecule": "COc1ccc(/C=N/NC(=O)O)cc1", "assigned_category": "inactive"}
{"molecule": "CCOc1ccc(/N=C/C=C(\\Cl)c2ccc3ccccc3c2)cc1", "assigned_category": "inactive"}
{"molecule": "CCN(CC)c1ccc(/C=C/C2=NN(c3cccc(S(=O)(=O)O)c3)C3(C2)C(Cl)C(=O)N3c2nc3ccccc3s2)cc1 (stereo not drawn)", "assigned_category": "inactive"}
{"molecule": "Nc1ccc(Nc2c3ccccc3nc3ccccc23)cc1", "assigned_category": "inactive"}
{"molecule": "Cn1c(=S)[nH]c(N)c(Cc2ccccc2)c1=O", "assigned_category": "inactive"}
{"molecule": "CC(=O)c1nc2ccccc2n1C(C)C(=O)c1ccccc1 (stereo not drawn)", "assigned_category": "inactive"}
{"molecule": "O=C1c2ccccc2-c2ccc(NC(=O)C3CCCCC3C(=O)O)cc21 (stereo not drawn)", "assigned_category": "inactive"}
{"molecule": "COc1cc2c(cc1OC)[C@H](C)N1CCc3cc(OC)c(OC)cc3[C@@H]1C2", "assigned_category": "inactive"}
{"molecule": "O=C(O)Cc1ccccc1 [PHENYLACETIC ACID]", "assigned_category": "inactive"}
{"molecule": "C/C=C\\C1OC1(C)c1cc(=O)c2c(C)cc3c(c2o1)C(=O)c1c(O)c(C2CC(C)(N(C)C)C(OC(C)=O)C(C)O2)cc(C2CC(N(C)C)C(O)C(C)O2)c1C3=O (stereo not drawn)", "assigned_category": "active"}
{"molecule": "Cc1csc(NC23CC4CC(CC(C4)C2)C3)[n+]1C(P(=O)([O-])O)P(=O)(O)O (stereo not drawn)", "assigned_category": "inactive"}

Taken from ChEMBL document CHEMBL1201862.
